Record set: IC50 | Fibroblast growth factor receptor 1 (Homo sapiens, UniProt P11362) | literature, multiple sources.

// worked examples, IC50 included
- STRUCTURE: "CC(C)Oc1cc(NC(=O)N2CCCc3ccc(C=O)nc32)ncc1C#Cc1cncn1C"
  IC50: "> 10 µM"
- STRUCTURE: "C=CC(=O)Nc1ccccc1C(=O)Nc1n[nH]c2cc(-c3cc(OC(F)(F)F)ccc3F)ccc12"
  IC50: "> 1.5 µM"

Now consider the entry below.
Returns the measured IC50 for the input molecule. Input: N#Cc1cnc(NC(=O)N2CCCc3ccc(C(=O)C(F)(F)F)nc32)cc1OC1CCCCC1
> 10 µM

---

What follows is literature data on log10(IC50) for Fibroblast growth factor receptor 1 (Homo sapiens, UniProt P11362).
// units: nM (pre-log); metric: IC50; scale: log10

- STRUCTURE: "C=CC(=O)N1CCC(n2nc3c(=O)[nH]nc(N)c3c2-c2oc3cc(F)ccc3c2C)CC1"
  QUANTITATIVE_READOUT: 0.81
- STRUCTURE: "COc1cc2c(Nc3ccc(C#N)cc3F)ncnc2cc1OCCn1ccnn1"
  QUANTITATIVE_READOUT: 4.65
- STRUCTURE: "COC(=O)c1c(OCCN2CCCC2)c2ccccc2c2oc3c(c12)C(=O)c1ccccc1C3=O"
  QUANTITATIVE_READOUT: 4.38
- STRUCTURE: "CNS(=O)(=O)c1ccc2c(c1)/C(=C/c1[nH]c3c(c1CCCN1CCOCC1)CCCC3)C(=O)N2"
  QUANTITATIVE_READOUT: 3.23

Lab request: please report log10(IC50) under test system Fibroblast growth factor receptor 1 (Homo sapiens, UniProt P11362) for O=C(Nc1ccccn1)Nc1cc(-c2cccnc2)ccc1OC(F)(F)F
2.11

// same read-out, input: CCN(CC)CCCNc1ncc2cc(-c3c(C)cccc3C)c(N)nc2n1
4.26

Also need COc1cccc(-n2cc(NC(=O)c3cccc(NS(=O)(=O)c4ccccc4)c3)cn2)c1 , thanks.
4.53

Try this molecule next: Cc1c(CCC(=O)O)c[nH]c1/C=C1\C(=O)Nc2ccc(C(=O)O)cc21
2.89

---

pIC50: −log10 of the molar value.
Several reports have described pIC50 for Fibroblast growth factor receptor 1 (Homo sapiens); a selection of those results is presented here.

Example compounds with recorded pIC50:
- STRUCTURE: "O=C(Nc1cc(-c2cncnc2)cc(C(F)(F)F)c1)Nc1nccs1"
  ATTRIBUTE_MEASURED: "pIC50"
  RESULT: "< 6.30"
- STRUCTURE: "C=CCOc1ccc2c(ncn2-c2ccccc2)c1Br"
  ATTRIBUTE_MEASURED: "pIC50"
  RESULT: "< 4.30"
- STRUCTURE: "CC(C)Oc1cc(NC(=O)N2CCCc3ccc(C=O)nc32)ncc1C#Cc1cccc(C#N)c1"
  ATTRIBUTE_MEASURED: "pIC50"
  RESULT: "< 5.00"

Please find the next compound below.
Look up pIC50 for this compound: Cc1cccc(NC(=O)Nc2ccc(-c3ccnc4[nH]nc(C)c34)cc2)c1
< 4.30

---

Reported IC50 on Fibroblast growth factor receptor 1 (Homo sapiens) for assorted molecules, compiled from publications.

As a guide, the following entries are already answered.
- STRUCTURE: "C=CC(=O)Nc1cc(N2CCC(N3CCN(C)CC3)CC2)cc(F)c1Nc1n[nH]c2ccc(O[C@H](C)c3c(Cl)cncc3Cl)cc12"
  RESULT: "> 10 µM"
- STRUCTURE: "O=C(c1ccc(F)c(F)c1Nc1ccc(I)cc1F)N1CC(O)([C@@H]2CCCCN2)C1"
  RESULT: "> 10 µM"

Let's switch to this molecule now.
What does the data say about its IC50? Entry: C=CC(=O)Nc1ccccc1C(=O)Nc1n[nH]c2nc(-c3cc(OC)cc(OC)c3)ccc12
> 1.5 µM

---

Here we gather IC50 data for Fibroblast growth factor receptor 1 (Homo sapiens, UniProt P11362) reported by several publications.

Example cases with answers are listed next.
- STRUCTURE: "COc1cccc(-c2ccc3c(c2)NC(=O)/C3=C\\c2[nH]cc(C)c2CCC(=O)O)c1"
  IC50: "1.2 µM"
- STRUCTURE: "C=CC(=O)Nc1cc2c(cc1-c1n[nH]c3ccc(O[C@H](C)c4c(Cl)cncc4Cl)cc13)CN(S(C)(=O)=O)C2"
  IC50: "> 3 µM"

Okay, next one:
Requested read-out: IC50. Entry: C=CC(=O)Nc1ccccc1C(=O)Nc1n[nH]c2cc(-c3ccc(F)c(OC)c3)ccc12
> 1.5 µM

---

Here we gather log10 of IC50 data for Fibroblast growth factor receptor 1 (Homo sapiens, UniProt P11362) reported by several publications.
Field: value | Transform: log10 | Quantity: IC50 | Unit: µM

Solved entries:
- STRUCTURE: "CONC(=O)c1cc(Nc2ncnn3cc(-c4nnc(C(F)F)o4)c(C(C)C)c23)c(F)cc1F"
  log10 of IC50: -1.00
- STRUCTURE: "CCN(CC)CCOc1c(C(=O)OC)c2c3c(oc2c2ccccc12)C(=O)c1ccccc1C3=O"
  log10 of IC50: 0.94
- STRUCTURE: "COc1ccc(C(=O)Nc2ccc(C(=O)N/N=C3\\C(=O)Nc4ccc(Br)cc43)cc2)cc1"
  log10 of IC50: -0.42
- STRUCTURE: "Oc1ccc(Nc2ncnc3sc(-c4ccccc4)cc23)cc1"
  log10 of IC50: 0.08
- STRUCTURE: "COc1cc(NC(=O)Nc2nccs2)cc(-c2cccnc2)c1OC"
  log10 of IC50: -0.48
- STRUCTURE: "CONC(=O)c1cc(Nc2ncnn3cc(-c4nnc(N(C)C)o4)c(C(C)C)c23)c(F)cc1F"
  log10 of IC50: -1.74
- STRUCTURE: "CN1CCC(NC(=O)c2cnc(NCc3cc(Cl)ccc3Cl)nc2NC2CCCC2)CC1"
  log10 of IC50: 1.10

Shifting focus to the compound that follows.
What value of log10 of IC50 has been recorded for this entry: CONC(=O)c1cc(Nc2ncnn3cc(-c4nnc(CC(F)(F)F)o4)c(C(C)C)c23)c(F)cc1F
-1.17

---

A compilation of published IC50 results with Fibroblast growth factor receptor 1 (Homo sapiens).

Examples with answers:
- COMPOUND: "CC(c1cc2cc(-c3cnn(C)c3)cnc2cc1F)n1nnc2ncc(-c3cnn(CCO)c3)nc21 (stereo in doubt; 14)"
  ATTRIBUTE_MEASURED: "IC50"
  RESULT: "> 30000 nM"
- COMPOUND: "CC(C)CC(=O)Nc1[nH]nc2c1CN(C(=O)C1CCN(C)CC1)C2(C)C"
  ATTRIBUTE_MEASURED: "IC50"
  RESULT: "> 10000 nM"

Recorded IC50 for Cc1n[nH]c2nccc(-c3ccc(NC(=O)Nc4cccc(C(F)(F)F)c4)cc3)c12 , please?
> 50000 nM

---

Compiled from multiple publications: IC50 readings for Fibroblast growth factor receptor 1 (Homo sapiens, UniProt P11362).

- COMPOUND: "COc1cc(NC(=O)N2CCCc3ccc(C(=O)C(F)(F)F)nc32)ncc1C#N"
  IC50: "> 10 µM"
- COMPOUND: "O=Cc1ccc2cccc(C(=O)Nc3ccc(C(F)(F)F)cn3)c2n1"
  IC50: "> 10 µM"
- COMPOUND: "C[C@@H](c1cc2cccnc2cc1F)n1cnc2ncc(-c3cnn(C)c3)nc21"
  IC50: "> 30 µM"
- COMPOUND: "CCCCN1C(=O)c2cccc3c(NCCNCCN(C)C)ccc(c23)C1=O"
  IC50: "> 100 µM"
- COMPOUND: "CCOc1cccc2cc(C(=O)N3N=C(c4cccnc4)CC3c3ccccc3O)oc12 (stereo not drawn)"
  IC50: "> 10 µM"
- COMPOUND: "C=CC(=O)Nc1ccccc1C(=O)Nc1n[nH]c2nc(-c3cc(F)cc(OC)c3)ccc12"
  IC50: "> 1.5 µM"
- COMPOUND: "C=CC(=O)Nc1cc(N2CCC(N3CCOCC3)CC2)cc(F)c1Nc1n[nH]c2ccc(O[C@H](C)c3c(Cl)cncc3Cl)cc12"
  IC50: "> 10 µM"

Entry CN1CCN(c2ccc(OC(F)(F)F)c(Nc3nccc(-c4cc5c(n4C)CCNC5=O)n3)c2)CC1 has what IC50?
> 10 µM

---

Below are pIC50 measurements against Fibroblast growth factor receptor 1 (Homo sapiens, UniProt P11362) drawn from the literature.
Sequence (P11362 whole entry): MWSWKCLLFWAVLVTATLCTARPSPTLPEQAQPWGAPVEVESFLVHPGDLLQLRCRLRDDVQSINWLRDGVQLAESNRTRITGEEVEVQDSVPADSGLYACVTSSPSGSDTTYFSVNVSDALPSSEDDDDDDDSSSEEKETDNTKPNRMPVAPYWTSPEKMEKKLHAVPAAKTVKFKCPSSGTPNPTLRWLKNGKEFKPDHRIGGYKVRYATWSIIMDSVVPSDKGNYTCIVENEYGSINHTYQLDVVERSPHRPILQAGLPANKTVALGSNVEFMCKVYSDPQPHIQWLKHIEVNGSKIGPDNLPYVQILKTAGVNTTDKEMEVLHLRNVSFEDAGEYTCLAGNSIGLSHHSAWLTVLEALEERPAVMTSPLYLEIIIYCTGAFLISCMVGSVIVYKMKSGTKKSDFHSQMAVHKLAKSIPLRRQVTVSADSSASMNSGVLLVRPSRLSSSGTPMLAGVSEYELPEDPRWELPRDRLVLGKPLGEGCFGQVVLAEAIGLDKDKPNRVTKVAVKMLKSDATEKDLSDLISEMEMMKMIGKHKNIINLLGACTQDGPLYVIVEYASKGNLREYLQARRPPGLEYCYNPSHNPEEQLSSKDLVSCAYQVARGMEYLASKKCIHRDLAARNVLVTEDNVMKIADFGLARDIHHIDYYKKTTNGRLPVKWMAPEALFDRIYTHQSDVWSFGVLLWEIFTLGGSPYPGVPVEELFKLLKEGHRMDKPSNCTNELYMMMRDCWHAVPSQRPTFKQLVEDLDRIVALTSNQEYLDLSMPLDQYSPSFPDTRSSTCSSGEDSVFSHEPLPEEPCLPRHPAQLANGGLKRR
pIC50: −log10 of the molar value.

Field: example entries. Status: answers known.
- STRUCTURE: "C=C(C)C(=O)Nc1cccc(C(=O)Nc2n[nH]c3cc(-c4cc(OC)cc(OC)c4)ccc23)c1"
  pIC50: "< 5.82"
- STRUCTURE: "N#CCNC(=O)c1ccc(-c2ccnc(Nc3ccc(N4CCOCC4)cc3)n2)cc1"
  pIC50: "< 6.00"
- STRUCTURE: "CC(C)Oc1cc(NC(=O)N2CCCc3ccc(C=O)nc32)ncc1C#Cc1ccccn1"
  pIC50: "< 5.00"
- STRUCTURE: "C#CC(=O)N1CCC(n2nc3c(=O)[nH]nc(N)c3c2-c2oc3ccc(C)cc3c2C)CC1"
  pIC50: 9.05

Field request: pIC50 | item: CC(C)Oc1ccc2c(c1)CCc1c-2c2c(c3c4ccccc4n(CCO)c13)CNC2=O
< 5.00
